# maps each entry to its inhibition at 150 µM
# System: Trypanosoma cruzi
# MEASUREMENT NOTES: Antitrypanosomal activity against Trypanosoma cruzi (MHOM/CH/00/Tulahuen C2, lacZ) amastigotes infected in HFF-1 cells assessed as reduction in parasite growth at 150 uM incubated for 120 hrs by CPRG/Igepal substrate based photometric method relative to control
# Type: functional
# TEST PARAMETERS: MHOM/CH/00/Tulahuen C2, HFF-1
Report as a plain number; the unit % is understood.

The cases that follow already have their inhibition at 150 µM on record.
| MOLECULE | UNIT SYMBOL | RECORDED NUMBER |
| --- | --- | --- |
| C=C(c1nc(-c2ccccc2)no1)C1(O)C(=O)N(CC)c2ccc([N+](=O)[O-])cc21 (configuration not stated) | % | 85.4 |
| O=C(Cn1ccnc1[N+](=O)[O-])NCc1ccccc1 | % | 92.8 |

Input line: Can you look up inhibition at 150 µM on Trypanosoma cruzi for C=C(c1nc(-c2ccccc2)no1)C(O)c1cccnc1 (configuration not stated) ?
Output line: 99.6

Input line: C=CCOC1(C(=C)c2nc(-c3ccccc3)no2)C(=O)N(CC)c2c(Br)cccc21 (configuration not stated) , same question.
Output line: 100

Input line: C=C(c1nc(-c2ccccc2)no1)C1(O)C(=O)N(CC)c2ccccc21 (configuration not stated) , same question.
Output line: 100

Input line: C=C(c1nc(-c2ccccc2)no1)C1(O)C(=O)N(CC)c2ccc(Br)cc21 (configuration not stated) , same question.
Output line: 100

Input line: C=C(c1nc(-c2ccccc2)no1)C(O)c1cccc(Cl)c1 (configuration not stated) , same question.
Output line: 98.6

----------
# maps each entry to its log10 CC50 at 120 h
# MEASUREMENT NOTES: Cytotoxicity against human HFF-1 cells assessed as reduction in cell viability incubated for 120 hrs by MTS assay
# Type: cell-based
Units before log transform: µM; reported quantity: CC50 at 120 h; transform: log10.

| COMPOUND | log10 CC50 at 120 h |
| --- | --- |
| C=C(c1nc(-c2ccc([N+](=O)[O-])cc2)no1)C1(O)C(=O)N(CC)c2ccc(OC)cc21 (centres undefined) | 1.64 |
| C=C(c1nc(-c2ccccc2)no1)C1(O)C(=O)N(C)c2ccccc21 (centres undefined) | 1.73 |
| C=C(c1nc(-c2ccccc2)no1)C1(O)C(=O)N(CC)c2c(Br)cccc21 (centres undefined) | 1.33 |
| CCN1C(=O)C2(OCC=C2c2nc(-c3ccccc3)no2)c2cccc(Br)c21 (centres undefined) | 1.53 |
| C=C(c1nc(-c2ccc(OC)cc2)no1)C1(O)C(=O)N(CC)c2ccc(OC)cc21 (centres undefined) | 1.74 |
| C=C(c1nc(-c2ccccc2)no1)C(O)c1ccccn1 (centres undefined) | 1.48 |
| C=CCOC1(C(=C)c2nc(-c3ccccc3)no2)C(=O)N(CC)c2c(Br)cccc21 (centres undefined) | 1.31 |

// next entry
Input line: Query: log10 CC50 at 120 h; subject: COc1cccc2c1C(=O)c1c(O)c3c(c(O)c1C2=O)C[C@@](O)(C(=O)CO)C[C@@H]3O[C@H]1C[C@H](N)[C@H](O)[C@H](C)O1
Output line: -0.28

----------
# maps each entry to its CC50 at 120 h
# MEASUREMENT NOTES: Cytotoxicity against human HepG2 cells assessed as reduction in cell viability incubated for 120 hrs by MTS assay
# Type: cell-based
Report as a plain number; the unit µM is understood.

| MOLECULE | CC50 at 120 h [µM] |
| --- | --- |
| C=C(c1nc(-c2ccc(Cl)cc2)no1)C1(O)C(=O)N(CC)c2ccccc21 (stereo not given) | 13.8 |
| CCN1C(=O)C2(OCC=C2c2nc(-c3ccccc3)no2)c2cccc(Br)c21 (stereo not given) | 58.4 |
| C=C(c1nc(-c2ccccc2)no1)C(O)c1ccc(Cl)cc1 (stereo not given) | 10.1 |

// next entry
Input line: Query: CC50 at 120 h; subject: C=C(c1nc(-c2ccc(Cl)cc2)no1)C1(O)C(=O)N(CC)c2ccc([N+](=O)[O-])cc21 (stereo not given)
Output line: 10.4

----------
# maps each entry to its CC50 at 120 h
# MEASUREMENT NOTES: Cytotoxicity against human HFF-1 cells assessed as reduction in cell viability incubated for 120 hrs by MTS assay
# Assay type: cell-based

| MOLECULE | CC50 at 120 h |
| --- | --- |
| C=C(c1nc(-c2ccccc2)no1)C(O)c1ccccc1[N+](=O)[O-] (stereo not given) | > 64 µM |

Input line: Query: CC50 at 120 h; subject: C=C(c1nc(-c2ccc(Cl)cc2)no1)C1(O)C(=O)N(CC)c2ccc([N+](=O)[O-])cc21 (stereo not given)
Output line: > 64 µM

Input line: C=C(c1nc(-c2ccccc2)no1)C1(O)C(=O)N(CC)c2ccccc21 (stereo not given) , same question.
Output line: > 64 µM

Input line: C=C(c1nc(-c2ccc(OC)cc2)no1)C(O)c1ccccc1C(F)(F)F (stereo not given) , same question.
Output line: > 64 µM

Input line: C=C(c1nc(-c2ccccc2)no1)C1(O)C(=O)N(CC)c2ccc(Br)cc21 (stereo not given) , same question.
Output line: > 64 µM

Input line: C=C(c1nc(-c2ccc(Cl)cc2)no1)C1(O)C(=O)N(CC)c2ccc(OC)cc21 (stereo not given) , same question.
Output line: 40.7 µM

Input line: C=C(c1nc(-c2ccccc2)no1)C1(O)C(=O)N(CC)c2ccc(Cl)cc21 (stereo not given) , same question.
Output line: > 64 µM

Input line: C=C(c1nc(-c2ccc(OC)cc2)no1)C1(O)C(=O)N(CC)c2ccccc21 (stereo not given) , same question.
Output line: > 64 µM

Input line: C=C(c1nc(-c2ccccc2)no1)C(O)c1ccc(Cl)cc1 (stereo not given) , same question.
Output line: > 64 µM

Input line: CCN1C(=O)C2(OCC=C2c2nc(-c3ccccc3)no2)c2ccccc21 (stereo not given) , same question.
Output line: 20.6 µM

----------
# maps each entry to its log10 CC50 at 120 h
# MEASUREMENT NOTES: Cytotoxicity against human HepG2 cells assessed as reduction in cell viability incubated for 120 hrs by MTS assay
# Format: cell-based
Units before log transform: µM; reported quantity: CC50 at 120 h; transform: log10.

The cases that follow already have their log10 CC50 at 120 h on record.
| MOLECULE | log10 CC50 at 120 h |
| --- | --- |
| C=C(c1nc(-c2ccc(OC)cc2)no1)C(O)c1ccccc1[N+](=O)[O-] (stereo unspecified) | 1.03 |
| C=C(c1nc(-c2ccccc2)no1)C1(O)C(=O)N(CC)c2ccc([N+](=O)[O-])cc21 (stereo unspecified) | 0.56 |

Input line: Query: log10 CC50 at 120 h; subject: C=C(c1nc(-c2ccc(OC)cc2)no1)C(O)c1ccccc1 (stereo unspecified)
Output line: 1.60

Input line: C=Cc1nc(-c2ccc([N+](=O)[O-])cc2)no1 , same question.
Output line: 1.43

Input line: C=Cc1nc(-c2ccc(OC)cc2)no1 , same question.
Output line: 1.76

Input line: CCN1C(=O)C2(OCC=C2c2nc(-c3ccccc3)no2)c2ccccc21 (stereo unspecified) , same question.
Output line: 1.78

----------
# MEASUREMENT NOTES: Cytotoxicity against human HepG2 cells assessed as reduction in cell viability incubated for 120 hrs by MTS assay
# Format: cell-based
Lab note - cut at 30 µM for CC50 at 120 h: Satisfied if strictly below, Not satisfied if not.

| COMPOUND | LABEL |
| --- | --- |
| C=C(c1nc(-c2cc(OC)c(OC)c(OC)c2)no1)C(O)c1ccccc1 (stereo not given) | Satisfied |
| C=C(c1nc(-c2ccccc2)no1)C(O)c1ccccn1 (stereo not given) | Not satisfied |
| C=C(c1nc(-c2ccc(OC)cc2)no1)C1(O)C(=O)N(CC)c2ccc([N+](=O)[O-])cc21 (stereo not given) | Satisfied |

Continue with the next compound.
Input line: Item C=C(c1nc(-c2ccc([N+](=O)[O-])cc2)no1)C(O)c1nccs1 (stereo not given) : CC50 at 120 h beneath 30 µM, strictly?
Output line: Not satisfied

----------
# MEASUREMENT NOTES: Cytotoxicity against human HFF-1 cells assessed as reduction in cell viability incubated for 120 hrs by MTS assay
# Type: cell-based
# maps each entry to its CC50 at 120 h

The cases that follow already have their CC50 at 120 h on record.
| MOLECULE | RESULT |
| --- | --- |
| C=C(c1nc(-c2ccccc2)no1)C(O)c1cccnc1 (stereo not drawn) | > 64 µM |
| C=C(c1nc(-c2ccccc2)no1)C(O)c1ccc(Cl)c(F)c1 (stereo not drawn) | > 64 µM |
| C=C(c1nc(-c2ccccc2)no1)C(O)c1ccc(C#N)cc1 (stereo not drawn) | > 64 µM |

Input line: Query: CC50 at 120 h; subject: C=CCOC1(C(=C)c2nc(-c3ccccc3)no2)C(=O)N(CC)c2ccccc21 (stereo not drawn)
Output line: > 64 µM

Input line: C=C(c1nc(-c2ccccc2)no1)C(O)c1ccccc1Cl (stereo not drawn) , same question.
Output line: > 64 µM

Input line: C=C(c1nc(-c2ccccc2)no1)C(O)c1cc2c(cc1Br)OCO2 (stereo not drawn) , same question.
Output line: > 64 µM

Input line: C=C(c1nc(-c2ccccc2)no1)C1(O)C(=O)N(CC)c2c(Cl)cccc21 (stereo not drawn) , same question.
Output line: 62.1 µM

Input line: C=C(c1nc(-c2ccc(Cl)cc2)no1)C1(O)C(=O)N(CC)c2ccccc21 (stereo not drawn) , same question.
Output line: > 64 µM
